test system: BT474 and HN5 tumor cell lines; assay: Methylene blue growth inhibition assay (cellular Method A); type: cell-based, Human; settings: Homo sapiens, BT-474, 72 h, 3 days, read-out: Activity (Method): growth inhibition IC50 class
pIC50: −log10 of the molar value.
Kindly state pIC50 for each of the entries shown.

Task item: # pIC50 lookup, item O=C(Nc1cccc(-c2nn3ccccc3c2-c2ccnc(Nc3cccc(F)c3)n2)c1)c1cccnc1
Reply: 6.00 to 7.00

Task item: # pIC50 lookup, item Cn1cccc1C(=S)Nc1cccc(-c2nn3ccccc3c2-c2ccnc(Nc3ccc4c(c3)OCCO4)n2)c1
Reply: 6.00 to 7.00

Task item: # pIC50 lookup, item CN1CCN(Cc2cccc(Nc3nccc(-c4c(-c5cccc(NC(=O)c6c(F)cccc6F)c5)nn5ccccc45)n3)c2)CC1
Reply: > 7.00

Task item: # pIC50 lookup, item COc1cc(Nc2nccc(-c3c(-c4cccc(NC(=O)c5c(F)cccc5F)c4)nn4c(C(F)(F)F)cccc34)n2)cc(OC)c1OC
Reply: 6.00 to 7.00

###

Kindly state IC50 for each of the entries shown.
tested on: BT474 and HN5 tumor cell lines; experiment: Methylene blue growth inhibition assay (cellular Method A); assay type: cell-based, Human; conditions: Homo sapiens, BT-474, 72 h, 3 days, read-out: Activity (Method): growth inhibition IC50 class

Task item: # IC50 lookup, item COc1ccccc1C(=O)Nc1cccc(-c2nn3ccccc3c2-c2ccnc(Nc3cccc(F)c3)n2)c1
Reply: 100 to 1000 nM

Task item: # IC50 lookup, item COc1cccc(C(=S)Nc2cccc(-c3nn4ccccc4c3-c3ccnc(Nc4ccc5c(c4)OCCO5)n3)c2)c1
Reply: 100 to 1000 nM

Task item: # IC50 lookup, item O=C(Nc1cccc(-c2nn3ccccc3c2-c2ccnc(Nc3ccc4c(c3)OCCO4)n2)c1)Nc1ccccc1Cl
Reply: > 1000 nM

Task item: # IC50 lookup, item O=C(Nc1cccc(-c2nn3ccccc3c2-c2ccnc(Nc3cccc(CCN4CCOCC4)c3)n2)c1)c1c(F)cccc1F
Reply: < 100 nM

Task item: # IC50 lookup, item Cc1ccc(F)c(C(=O)Nc2cccc(-c3nn4ccccc4c3-c3ccnc(Nc4cccc(F)c4)n3)c2)c1F
Reply: 100 to 1000 nM

Task item: # IC50 lookup, item CN(C)Cc1ccc(Nc2nccc(-c3c(-c4cccc(NC(=O)c5c(F)cccc5F)c4)nn4ccccc34)n2)cc1
Reply: < 100 nM

Task item: # IC50 lookup, item CC(c1cccc(Nc2nccc(-c3c(-c4cccc(NC(=O)c5c(F)cccc5F)c4)nn4ccccc34)n2)c1)S(C)(=O)=O (racemic) [Example 117]
Reply: < 100 nM

Task item: # IC50 lookup, item COc1cccc2c(-c3ccnc(Nc4cccc(C(F)(F)F)c4)n3)c(-c3cccc(NC(=O)c4c(F)cccc4F)c3)nn12
Reply: 100 to 1000 nM

Task item: # IC50 lookup, item O=C(Nc1cccc(-c2nn3ccccc3c2-c2ccnc(Nc3cccc(F)c3)n2)c1)c1ccccc1F
Reply: < 100 nM

Task item: # IC50 lookup, item O=C(Nc1cccc(-c2nn3ccccc3c2-c2ccnc(Nc3ccc(Nc4ccccc4)cc3)n2)c1)c1c(F)cccc1F
Reply: 100 to 1000 nM

Task item: # IC50 lookup, item Nc1ccc(C(=O)Nc2cccc(-c3nn4ccccc4c3-c3ccnc(Nc4ccccc4)n3)c2)cc1
Reply: 100 to 1000 nM

Task item: # IC50 lookup, item C=CCN(C)CCOc1cccc(Nc2nccc(-c3c(-c4cccc(NC(=O)c5cc(F)ccc5F)c4)nn4ccccc34)n2)c1
Reply: < 100 nM

Task item: # IC50 lookup, item O=C(Nc1cccc(-c2nn3ccccc3c2-c2ccnc(Nc3cccc(F)c3)n2)c1)c1c(F)cccc1C(F)(F)F
Reply: < 100 nM

Task item: # IC50 lookup, item S=C(Nc1cccc(-c2nn3ccccc3c2-c2ccnc(Nc3ccc4c(c3)OCCO4)n2)c1)c1ccccc1
Reply: 100 to 1000 nM

Task item: # IC50 lookup, item Cn1nnc2cc(C(=O)Nc3cccc(-c4nn5ccccc5c4-c4ccnc(Nc5cccc(F)c5)n4)c3)ccc21
Reply: > 1000 nM

Task item: # IC50 lookup, item CN(C)CC(=O)Nc1ccc(Nc2nccc(-c3c(-c4cccc(NC(=O)c5c(F)cccc5F)c4)nn4ccccc34)n2)cc1
Reply: < 100 nM

Task item: # IC50 lookup, item Cn1cncc1C(=O)Nc1cccc(-c2nn3ccccc3c2-c2ccnc(Nc3cccc(F)c3)n2)c1
Reply: > 1000 nM

Task item: # IC50 lookup, item O=C(Nc1cccc(-c2nn3c(C(F)(F)F)cccc3c2-c2ccnc(Nc3cccc(F)c3)n2)c1)c1c(F)cccc1F
Reply: 100 to 1000 nM

Task item: # IC50 lookup, item O=C(Nc1cccc(-c2nn3ccccc3c2-c2ccnc(Nc3ccc(N4CCOCC4)cc3)n2)c1)c1cc(F)ccc1F
Reply: < 100 nM

Task item: # IC50 lookup, item CCN1CCN(c2ccc(Nc3nccc(-c4c(-c5cccc(NC(=O)c6c(F)cccc6F)c5)nn5ccccc45)n3)cc2)CC1
Reply: < 100 nM

Task item: # IC50 lookup, item CN1CCN(CCCNc2ccc(Nc3nccc(-c4c(-c5cccc(NC(=O)c6c(F)cccc6F)c5)nn5ccccc45)n3)cc2F)CC1
Reply: < 100 nM

Task item: # IC50 lookup, item O=C(Cc1ccccc1)c1ccc(Nc2nccc(-c3c(-c4cccc(NC(=O)c5c(F)cccc5F)c4)nn4ccccc34)n2)cc1
Reply: 100 to 1000 nM

Task item: # IC50 lookup, item O=C(Nc1cccc(-c2nn3ccccc3c2-c2ccnc(Nc3ccc(N4CCCC4)c(F)c3)n2)c1)c1c(F)cccc1F
Reply: < 100 nM

Task item: # IC50 lookup, item O=C(Nc1cccc(-c2nn3ccccc3c2-c2ccnc(Nc3cccc(F)c3)n2)c1)c1sccc1Cl
Reply: 100 to 1000 nM

Task item: # IC50 lookup, item Cc1ccc(F)cc1C(=O)Nc1cccc(-c2nn3ccccc3c2-c2ccnc(Nc3cccc(F)c3)n2)c1
Reply: 100 to 1000 nM

Task item: # IC50 lookup, item O=C(Nc1cccc(-c2nn3ccccc3c2-c2ccnc(Nc3cccc(F)c3)n2)c1)c1cccs1
Reply: 100 to 1000 nM

Task item: # IC50 lookup, item O=C(Nc1cccc(-c2nn3ccccc3c2-c2ccnc(Nc3cccc(F)c3)n2)c1)c1c(F)cccc1Cl
Reply: < 100 nM

Task item: # IC50 lookup, item Cc1ccc2c(-c3ccnc(Nc4cccc(F)c4)n3)c(-c3cccc(NC(=O)c4cc(F)ccc4F)c3)nn2c1
Reply: 100 to 1000 nM
